- System: T-47D breast
- ASSAY OVERVIEW: NCI tumour cell line growth inhibition, 48 h

MOLECULE | TGI
CNC(c1ccncc1)C(NC)c1ccncc1 (stereo unspecified) | > 100 µM
COc1ccc(-c2nc(C(=O)c3ccccc3)n(CC(=O)c3ccc(Cl)cc3)c2-c2ccc(OC)cc2)cc1 | > 100 µM
N#Cc1nc(-c2cccc(-c3nc(C#N)c(N)o3)n2)oc1N | > 100 µM
NNC(=O)C(O)C(O)C(=O)NN (stereo unspecified) | > 100 µM
COc1ccc(CNc2nc3ccccc3nc2C(=O)O)cc1 | > 100 µM
COc1cc2c(cc1OCCCOc1ccc(-c3nc4ccc(N5CCN(C)CC5)cc4[nH]3)cc1)N=C[C@@H]1CCCN1C2=O | 15 µM
O=C1N(c2ccccc2)C(=S)/C(=C/c2ccc(Cl)cc2)N1c1ccc(Cl)cc1 | > 100 µM
O=c1[nH]c2ccc([N+](=O)[O-])cc2nc1/C=C(\O)c1ccccc1 | > 100 µM
NS(=O)(=O)c1ccc(N=Nc2ccc(O)c(C(=O)O)c2)cc1 | > 100 µM
COC1CC(OC2C(C)OC(OC3C(C)OC(OC4C(C)OC(O[C@H]5CC[C@@]6(C)C(=CC[C@]7(O)[C@@H]6C[C@@H](O)[C@@]6(C)[C@]7(O)CC[C@@]6(O)C(C)=O)C5)CC4OC)CC3OC)CC2OC)OC(C)C1O (stereo partly specified) | > 12.5 µM
CCOC(=O)C1=C(C)N(Cc2ccccc2)C2(O)C=CC(=O)C3=C(O)c4ccccc4C(=O)C312 (stereo unspecified) | 45 µM

---

As shown below, each of these compounds has a reported TGI value.
- System: MOLT-4 leukemia
- ASSAY OVERVIEW: NCI tumour cell line growth inhibition, 48 h
REPORTED ENDPOINT: TGI

COMPOUND | ASSAY RESULT
CC(=O)[C-](C(C)=O)c1ccccc1.CC(=O)[C-](C(C)=O)c1ccccc1.CC(=O)[C-](C(C)=O)c1ccccc1.[Cl-].[Zr+4] | > 100 µM
C=C1C(=O)OC2C3OC(C)(CCC(O)C3COC(C)=O)CC(OC(=O)/C(=C/C)COC(C)=O)C12 (stereo not given) | 0.389 µM
C=CC[C@H](N=C(SC)SC)C(=O)N1C(=O)N(C)[C@@H](C)[C@H]1c1ccccc1 | > 100 µM
O=C(/C=C/c1ccc([N+](=O)[O-])cc1)c1cccc(Nc2nc(Nc3ccccc3)nc(Nc3ccccc3)n2)c1 | 20 µM
S=c1c2ccccc2c(=S)n2n1CC=CC2 | > 100 µM
CC(=O)c1sc2[n+](c1C)C(=O)/C(=C\c1ccccc1Cl)S2 | > 100 µM
N#Cc1nc(/C=C/c2cccnc2)oc1N | > 100 µM
C/C(=N/O)c1ccc(Nc2cc(-n3ccnc3)c3ccccc3n2)cc1 | 18.5 µM
CN1CCN([C@H]2C[C@H]3[C@@H]4CC=C5C[C@@H](O)CC[C@]5(C)[C@H]4CC[C@]3(C)[C@H]2O)CC1 | > 82.5 µM
COC(=O)C(NC(=O)OC(C)(C)C)P(=O)(OC)OC (stereo not given) | > 100 µM

---

- System: NCI-H23 lung
- ASSAY OVERVIEW: NCI tumour cell line growth inhibition, 48 h
REPORTED ENDPOINT: TGI (µM)

COMPOUND | REPORTED ENDPOINT | COMPARISON SIGN | ASSAY RESULT
Cc1ccc(/C=C2\N=C(N3CCCC(CO)C3)NC2=O)cc1 (centres undefined) | TGI | > | 100
CCCCCCCCCCSC(=N)N | TGI | = | 21.3
COc1cc2c(cc1OCCCOc1ccc(-c3nc4ccc(N5CCN(C)CC5)cc4[nH]3)cc1)N=C[C@@H]1CCCN1C2=O | TGI | < | 0.01
CCNC(=S)N/N=C(\C)c1cccc(C)n1 | TGI | > | 100
Clc1cc2nnn(C3CCCO3)c2cc1Cl (centres undefined) | TGI | > | 100
c1ccc(-c2ccnc3c2ccc2c(-c4ccccc4)ccnc23)cc1 | TGI | = | 14.1
CC(C)(C)Sc1nnc(SC(C)(C)C)c2c(=O)[nH]nc(SC(C)(C)C)c12 | TGI | = | 22.9
COc1ccccc1NC(=S)N/N=C/c1cccc(C)n1 | TGI | > | 100
C/C(=N\NC(N)=S)c1ccc(C2CCCCC2)cc1 | TGI | = | 56.3
CC1=CC(=O)NP(=O)(C23CC4CC(CC(C4)C2)C3)N1 (centres undefined) | TGI | > | 100
CN=C(N)N/N=C(\C)c1ccc2c(c1)Cc1ccccc1-2 | TGI | = | 12.3
CN(C)CCCNC(=O)c1cn2c(ccc3sc4ccccc4c(=O)c32)n1 | TGI | = | 28.4
CC(=O)Nc1ccc(-c2nnc(SCC(=O)Nc3ccc(Cl)cc3)o2)cc1 | TGI | = | 18.2
C(#Cc1ccccc1)SC1=C(c2ccccc2)S/C(=C(\SC#Cc2ccccc2)c2ccccc2)S1 | TGI | > | 100

---

Below is a list of entries, each paired with its recorded TGI value.
- Tested on: U251 CNS
- ASSAY OVERVIEW: NCI tumour cell line growth inhibition, 48 h
REPORTED ENDPOINT: TGI

COMPOUND | REPORTED ENDPOINT | ASSAY RESULT
CCCCCCCCCCCCOP(=O)(O)OP(=O)(O)OCC1OC(n2cc(C)c(=O)[nH]c2=O)CC1O (stereo unspecified) | TGI | > 100 µM
O=C(Nc1ccc(Cl)cc1)c1cc(S(=O)(=O)Nc2n[nH]c(=O)n2-c2ccccc2)c(S)cc1Cl | TGI | > 100 µM
S=c1c2ccccc2c(=S)n2n1CC=CC2 | TGI | > 100 µM
Oc1ccc(Cl)cc1/C=N\NC(=S)N/N=C/c1cc(Cl)ccc1O | TGI | > 100 µM
C=CC[C@H](N=C(SC)SC)C(=O)N1C(=O)N(C)[C@@H](C)[C@H]1c1ccccc1 | TGI | > 100 µM
Cc1ccc(NC(=O)CC(=O)n2nc(C)c(N=Nc3cccc(C)c3)c2C)cc1 | TGI | > 100 µM
O=S(=O)(O)c1ccc2c(N=Nc3ccc(Sc4ccc(N=Nc5c(O)ccc6cc(S(=O)(=O)O)ccc56)cc4)cc3)c(O)ccc2c1 | TGI | > 100 µM
Cc1noc(/N=C2\C=C(Nc3onc(C)c3C)C(=O)c3ccccc32)c1C | TGI | > 100 µM
O=S(=O)(O)c1cc(S(=O)(=O)O)c2c(N=Nc3ccc(N=Nc4ccccc4)cc3)c(O)ccc2c1 | TGI | > 100 µM
C=C1CC2[C@H](C)C(=O)CCC2(C)C2=C1C1CCC(C(C)CCC(=C)C(C)C(=O)O)C1(C)CC2=O (stereo partly specified) | TGI | > 100 µM
COc1ccc(C(=O)c2cc3c(N)c(C(=O)Nc4cccc(OC)c4)sc3nc2C)cc1 | TGI | > 100 µM
O=Cc1ccc(N2CCN(c3ccc(C=O)cc3)CC2)cc1 | TGI | > 100 µM
CN/N=C(\C(=O)Nc1ccc(C)c(C)c1)C(C(=O)OC)c1nc2ccc([N+](=O)[O-])cc2[nH]c1=O (stereo unspecified) | TGI | > 100 µM
CCCCNC1=C(C(=O)OCC)/C(=N/NC(=O)c2ccccc2O)CO1 | TGI | > 100 µM
COC1CC(OC2C(C)OC(OC3C(C)OC(OC4C(C)OC(O[C@H]5CC[C@@]6(C)C(=CC[C@]7(O)[C@@H]6C[C@@H](O)[C@@]6(C)[C@]7(O)CC[C@@]6(O)C(C)=O)C5)CC4OC)CC3OC)CC2OC)OC(C)C1O (stereo partly specified) | TGI | > 12.5 µM
CC(=O)NC(CCCN(Cc1ccccc1)C(=O)N(C)N=O)C(=O)NCc1ccccc1 (stereo unspecified) | TGI | > 100 µM
O=[N+]([O-])C(C=C(n1nnc2ccccc21)n1nnc2ccccc21)=C(n1nnc2ccccc21)n1nnc2ccccc21 | TGI | > 100 µM
COC(=O)c1ccc(NCC2=C(Br)C(=O)C=CC2=O)cc1Cl | TGI | 43.6 µM
COc1cc2c(cc1OCCCOc1ccc(-c3nc4ccc(N5CCN(C)CC5)cc4[nH]3)cc1)N=C[C@@H]1CCCN1C2=O | TGI | 5.07 µM
O=C1N(c2ccccc2)C(=S)/C(=C/c2ccc(Cl)cc2)N1c1ccc(Cl)cc1 | TGI | 96.6 µM
O=c1cc(N2CCCC2)[nH]c(=O)n1-c1ccc(Cl)cc1 | TGI | > 100 µM

---

- System: A549 NSCLC
- ASSAY OVERVIEW: NCI tumour cell line growth inhibition, 48 h
compounds and their reported TGI

COMPOUND | TGI
CCOC(=O)/C=C/[C@@H](CC)O[Si](C(C)C)(C(C)C)C(C)C | > 100 µM
O=C(/C=C/c1cccc2ccccc12)Nc1ncc(Cc2ccccc2)s1 | > 66.3 µM
CCOC(=O)CC(NC(=O)c1ccc(N=NN(C)C)cc1)C(=O)OCC (stereo unspecified) | > 100 µM
COc1cc2c3c(cc(Cl)nc3c1OC)C(O)(CC(=O)c1ccccc1)C(=O)N2 (stereo unspecified) | 33.1 µM
CC(C)[Si](OCC1CC(C#N)OC(C)(C)O1)(C(C)C)C(C)C (stereo unspecified) | > 100 µM
COCCN1C(=O)C2c3[nH]c4ccccc4c3C3CCC(C(C)(C)C)CC3C2C1=O (stereo unspecified) | 39.5 µM
S=c1nc[nH]c2c1ncn2C1CCCO1 (stereo unspecified) | > 100 µM
CCNC(=S)N/N=C(\C)c1cccc(C)n1 | > 100 µM
C(#Cc1ccccc1)SC1=C(c2ccccc2)S/C(=C(\SC#Cc2ccccc2)c2ccccc2)S1 | > 100 µM
Cc1cc(=O)oc2c(CNC(CC(C)C)C(=O)O)c(O)ccc12 (stereo unspecified) | > 100 µM
CC(C)N1C(C)[C@@H](c2ccccc2)O[P@]1(=O)CC1=CCCCC1 (stereo partly specified) | > 100 µM
[CH3][Sn]1([CH3])[O]CC(COc2cc(Cl)c(Cl)cc2Cl)[O]1 (stereo unspecified) | > 100 µM
O=C1C(c2c(O)[nH]c3ccc(S(=O)(=O)NCCO)cc23)=Nc2ccccc21 | > 100 µM
COc1cccc2c1cc1c3c(cc4c(c32)OCO4)C(=O)N1 | > 100 µM
CN1CCN([C@H]2C[C@H]3[C@@H]4CC=C5C[C@@H](O)CC[C@]5(C)[C@H]4CC[C@]3(C)[C@H]2O)CC1 | > 100 µM
CN(C(=O)CNC(=O)/C=C/c1cccc(Cl)c1)C1CCS(=O)(=O)CC1 | > 100 µM

Source listed as PubChem BioAssay (NCI).
